# Assay target: T1, orthogonal hCD122 receptor (hoRb), hCD122 with H133D and Y134F (human, UniProt P14784 27-550); further: reference of the scale not given here
# T1 sequence: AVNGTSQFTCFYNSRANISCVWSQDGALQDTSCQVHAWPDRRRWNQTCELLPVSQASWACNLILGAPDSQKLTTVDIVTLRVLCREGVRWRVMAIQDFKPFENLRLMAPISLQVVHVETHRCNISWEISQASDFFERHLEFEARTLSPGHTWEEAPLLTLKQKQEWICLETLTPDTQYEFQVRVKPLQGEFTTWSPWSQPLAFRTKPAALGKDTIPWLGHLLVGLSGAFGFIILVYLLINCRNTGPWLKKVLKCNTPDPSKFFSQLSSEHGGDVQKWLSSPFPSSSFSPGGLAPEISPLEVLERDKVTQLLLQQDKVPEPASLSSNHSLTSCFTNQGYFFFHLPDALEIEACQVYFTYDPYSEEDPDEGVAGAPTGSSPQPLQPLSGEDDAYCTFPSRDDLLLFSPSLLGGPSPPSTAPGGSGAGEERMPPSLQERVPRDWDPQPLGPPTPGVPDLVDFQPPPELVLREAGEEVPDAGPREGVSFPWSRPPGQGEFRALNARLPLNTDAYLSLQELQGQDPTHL
# Test method notes: cell-based or functional assay
Overview of reported Relative Proliferation Fold Change NKL 1:2 across a group of binders:
Hi! Could you send only the number? It should be in fold, unit omitted.

The following binders have reported results that may help.
{"Binder": "SQVLIA (ligand) APTSSSTKKTQLQLSQLLVLLIAILNGINNYKNPKLTRMLTFKFYMPKKATELKHLQCLEEELKPLEEVLNLAQSKNFHLRPRDLISNINVIVLELKGSETTFMCEYADETATIVEFLNRWITFCQSIISTLT", "Reported": 1.11}
{"Binder": "Q126I, SQVLKA (ligand) APTSSSTKKTQLQLSQLLVLLKAILNGINNYKNPKLTRMLTFKFYMPKKATELKHLQCLEEELKPLEEVLNLAQSKNFHLRPRDLISNINVIVLELKGSETTFMCEYADETATIVEFLNRWITFCISIISTLT", "Reported": 3.78}
{"Binder": "L80V, SQVLKA (ligand) APTSSSTKKTQLQLSQLLVLLKAILNGINNYKNPKLTRMLTFKFYMPKKATELKHLQCLEEELKPLEEVLNLAQSKNFHVRPRDLISNINVIVLELKGSETTFMCEYADETATIVEFLNRWITFCQSIISTLT", "Reported": 4.26}
{"Binder": "F42K, SQVLKA (ligand) APTSSSTKKTQLQLSQLLVLLKAILNGINNYKNPKLTRMLTKKFYMPKKATELKHLQCLEEELKPLEEVLNLAQSKNFHLRPRDLISNINVIVLELKGSETTFMCEYADETATIVEFLNRWITFCQSIISTLT", "Reported": 0.83}

Asked: I am curious: what Relative Proliferation Fold Change NKL 1:2 value has been reported for T3A, SQVLKA (ligand) APASSSTKKTQLQLSQLLVLLKAILNGINNYKNPKLTRMLTFKFYMPKKATELKHLQCLEEELKPLEEVLNLAQSKNFHLRPRDLISNINVIVLELKGSETTFMCEYADETATIVEFLNRWITFCQSIISTLT ?
Given back: 3.91

Asked: Query (binder): T3C, SQVLKA (ligand) APCSSSTKKTQLQLSQLLVLLKAILNGINNYKNPKLTRMLTFKFYMPKKATELKHLQCLEEELKPLEEVLNLAQSKNFHLRPRDLISNINVIVLELKGSETTFMCEYADETATIVEFLNRWITFCQSIISTLT ; field requested: Relative Proliferation Fold Change NKL 1:2
Given back: 4.54

Asked: Return reported Relative Proliferation Fold Change NKL 1:2; argument: Q13W SQVLKA (ligand) APTSSSTKKTQLWLSQLLVLLKAILNGINNYKNPKLTRMLTFKFYMPKKATELKHLQCLEEELKPLEEVLNLAQSKNFHLRPRDLISNINVIVLELKGSETTFMCEYADETATIVEFLNRWITFCQSIISTLT
Given back: 1.24
